readoutName: log10(IC50) (log10 of the value in µM)
Please keep in mind that the values are log10 of IC50 expressed in µM.

IN: Which log10(IC50) is reported with Phosphotyrosine protein phosphatase (Mycobacterium tuberculosis) for this entry: CCOC(=O)C1=C(C)Oc2nc(C)n(Cc3cn([C@@H]4O[C@H](COC(C)=O)[C@@H](OC(C)=O)[C@H](OC(C)=O)[C@H]4OC(C)=O)nn3)c(=O)c2C1c1cccc(Cl)c1 (stereo partly specified) ?
OUT: 0.98

IN: Param readout = log10(IC50); param system = Phosphotyrosine protein phosphatase (Mycobacterium tuberculosis); param query = CCOC(=O)C1=C(C)Oc2nc(C)n(Cc3cn([C@@H]4O[C@H](COC(C)=O)[C@@H](OC(C)=O)[C@H](OC(C)=O)[C@H]4OC(C)=O)nn3)c(=O)c2C1c1ccc(OC)cc1 (stereo partly specified) ; response: value
Sequence (A0A045ISB3 whole entry): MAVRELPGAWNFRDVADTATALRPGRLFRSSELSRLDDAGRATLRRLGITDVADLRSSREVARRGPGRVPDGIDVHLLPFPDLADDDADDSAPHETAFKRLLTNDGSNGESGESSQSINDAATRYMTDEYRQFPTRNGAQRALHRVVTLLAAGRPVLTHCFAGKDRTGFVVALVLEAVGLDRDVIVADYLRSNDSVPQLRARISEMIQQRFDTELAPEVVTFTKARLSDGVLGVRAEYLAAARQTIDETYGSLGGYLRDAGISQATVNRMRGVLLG
OUT: 1.46

IN: Form field: log10(IC50) recorded for CCOC(=O)C1=C(C)Oc2nc(C)n(Cc3cn([C@@H]4O[C@H](COC(C)=O)[C@@H](OC(C)=O)[C@H](OC(C)=O)[C@H]4OC(C)=O)nn3)c(=O)c2C1c1ccccc1Cl (stereo partly specified) with Phosphotyrosine protein phosphatase (Mycobacterium tuberculosis) (enter value)
OUT: 1.52

IN: Item: CCOC(=O)C1=C(C)Oc2nc(C)n(Cc3cn([C@@H]4O[C@H](COC(C)=O)[C@@H](OC(C)=O)[C@H](OC(C)=O)[C@H]4OC(C)=O)nn3)c(=O)c2C1c1cccc([N+](=O)[O-])c1 (stereo partly specified) Test system: Phosphotyrosine protein phosphatase (Mycobacterium tuberculosis) Read-out: log10(IC50) Value: ?
OUT: 1.65

IN: Requested read-out log10(IC50), target or system Phosphotyrosine protein phosphatase (Mycobacterium tuberculosis), entry CCOC(=O)C1=C(C)Oc2nc(C)n(Cc3cn([C@@H]4O[C@H](COC(C)=O)[C@@H](OC(C)=O)[C@H](OC(C)=O)[C@H]4OC(C)=O)nn3)c(=O)c2C1c1ccc([N+](=O)[O-])cc1 (stereo partly specified)
OUT: 1.52

IN: Which measured log10(IC50) belongs to CCOC(=O)C1=C(C)Oc2nc(C)n(Cc3cn([C@@H]4O[C@H](COC(C)=O)[C@@H](OC(C)=O)[C@H](OC(C)=O)[C@H]4OC(C)=O)nn3)c(=O)c2C1c1ccc(N(C)C)cc1 (stereo partly specified) , tested on Phosphotyrosine protein phosphatase (Mycobacterium tuberculosis)?
OUT: 1.51

IN: Give log10(IC50) (Phosphotyrosine protein phosphatase (Mycobacterium tuberculosis)) of the following compound: CCOC(=O)C1=C(C)Oc2nc(C)n(Cc3cn([C@@H]4O[C@H](COC(C)=O)[C@@H](OC(C)=O)[C@H](OC(C)=O)[C@H]4OC(C)=O)nn3)c(=O)c2C1c1ccc(O)c(OC)c1 (stereo partly specified)
OUT: 0.88

IN: Recall the recorded log10(IC50) for CCOC(=O)C1=C(C)Oc2nc(C)n(Cc3cn([C@@H]4O[C@H](COC(C)=O)[C@@H](OC(C)=O)[C@H](OC(C)=O)[C@H]4OC(C)=O)nn3)c(=O)c2C1c1ccccc1OC (stereo partly specified) with Phosphotyrosine protein phosphatase (Mycobacterium tuberculosis) and state it.
OUT: 1.54

IN: Lab request: please report log10(IC50) under test system Phosphotyrosine protein phosphatase (Mycobacterium tuberculosis) for CCOC(=O)C1=C(C)Oc2nc(C)n(Cc3cn([C@@H]4O[C@H](COC(C)=O)[C@@H](OC(C)=O)[C@H](OC(C)=O)[C@H]4OC(C)=O)nn3)c(=O)c2C1c1ccc(O)c(OCC)c1 (stereo partly specified)
OUT: 0.90

IN: # get_value(readout= log10(IC50), system= Phosphotyrosine protein phosphatase (Mycobacterium tuberculosis)) for CCOC(=O)C1=C(C)Oc2nc(C)n(Cc3cn([C@@H]4O[C@H](COC(C)=O)[C@@H](OC(C)=O)[C@H](OC(C)=O)[C@H]4OC(C)=O)nn3)c(=O)c2C1c1ccc(Cl)cc1Cl (stereo partly specified)
OUT: 1.64

IN: Please provide the recorded log10(IC50) for CCOC(=O)C1=C(C)Oc2nc(C)n(Cc3cn([C@@H]4O[C@H](COC(C)=O)[C@@H](OC(C)=O)[C@H](OC(C)=O)[C@H]4OC(C)=O)nn3)c(=O)c2C1c1cccc(OC)c1 (stereo partly specified) , tested on Phosphotyrosine protein phosphatase (Mycobacterium tuberculosis).
OUT: 1.45

IN: Which log10(IC50) is reported with Phosphotyrosine protein phosphatase (Mycobacterium tuberculosis) for this entry: CCOC(=O)C1=C(C)Oc2nc(C)n(Cc3cn([C@@H]4O[C@H](COC(C)=O)[C@@H](OC(C)=O)[C@H](OC(C)=O)[C@H]4OC(C)=O)nn3)c(=O)c2C1c1cc(OC)c(O)c(OC)c1 (stereo partly specified) ?
OUT: 0.35

IN: Request - read-out log10(IC50) | tested on Phosphotyrosine protein phosphatase (Mycobacterium tuberculosis) | compound CCOC(=O)C1=C(C)Oc2nc(C)n(Cc3cn([C@@H]4O[C@H](COC(C)=O)[C@@H](OC(C)=O)[C@H](OC(C)=O)[C@H]4OC(C)=O)nn3)c(=O)c2C1c1ccccc1[N+](=O)[O-] (stereo partly specified)
OUT: 1.55

IN: Notebook entry, Phosphotyrosine protein phosphatase (Mycobacterium tuberculosis) assay: log10(IC50) of CCOC(=O)C1=C(C)Oc2nc(C)n(Cc3cn([C@@H]4O[C@H](COC(C)=O)[C@@H](OC(C)=O)[C@H](OC(C)=O)[C@H]4OC(C)=O)nn3)c(=O)c2C1c1ccccc1O (stereo partly specified) = ?
OUT: 1.46

IN: Query log10(IC50) on Phosphotyrosine protein phosphatase (Mycobacterium tuberculosis) for CCOC(=O)C1=C(C)Oc2nc(C)n(Cc3cn([C@@H]4O[C@H](COC(C)=O)[C@@H](OC(C)=O)[C@H](OC(C)=O)[C@H]4OC(C)=O)nn3)c(=O)c2C1c1cc(OC)c(O)c([N+](=O)[O-])c1 (stereo partly specified)
OUT: 0.19

IN: Reported log10(IC50) for Phosphotyrosine protein phosphatase (Mycobacterium tuberculosis), given CCOC(=O)C1=C(C)Oc2nc(C)n(Cc3cn([C@@H]4O[C@H](COC(C)=O)[C@@H](OC(C)=O)[C@H](OC(C)=O)[C@H]4OC(C)=O)nn3)c(=O)c2C1c1cccc(O)c1 (stereo partly specified) ?
OUT: 1.56

IN: Value wanted: log10(IC50) (Phosphotyrosine protein phosphatase (Mycobacterium tuberculosis)) of entry CCOC(=O)C1=C(C)Oc2nc(C)n(Cc3cn([C@@H]4O[C@H](COC(C)=O)[C@@H](OC(C)=O)[C@H](OC(C)=O)[C@H]4OC(C)=O)nn3)c(=O)c2C1c1ccc(OCC)c(O)c1 (stereo partly specified)
OUT: 0.55

IN: Hello, I am looking for reported log10(IC50) with Phosphotyrosine protein phosphatase (Mycobacterium tuberculosis) for CCOC(=O)C1=C(C)Oc2nc(C)n(Cc3cn([C@@H]4O[C@H](COC(C)=O)[C@@H](OC(C)=O)[C@H](OC(C)=O)[C@H]4OC(C)=O)nn3)c(=O)c2C1c1ccccc1 (stereo partly specified) . Could you help?
OUT: 1.67

IN: Form: Entry = CCOC(=O)C1=C(C)Oc2nc(C)n(Cc3cn([C@@H]4O[C@H](COC(C)=O)[C@@H](OC(C)=O)[C@H](OC(C)=O)[C@H]4OC(C)=O)nn3)c(=O)c2C1c1ccc(O)cc1 (stereo partly specified) | System = Phosphotyrosine protein phosphatase (Mycobacterium tuberculosis) | log10(IC50) = ____
OUT: 1.55

IN: Param readout = log10(IC50); param system = Phosphotyrosine protein phosphatase (Mycobacterium tuberculosis); param query = CCOC(=O)C1=C(C)Oc2nc(C)n(Cc3cn([C@@H]4O[C@H](COC(C)=O)[C@@H](OC(C)=O)[C@H](OC(C)=O)[C@H]4OC(C)=O)nn3)c(=O)c2C1c1cc(OC)cc(OC)c1 (stereo partly specified) ; response: value
OUT: 1.51

IN: Find the measured log10(IC50): item CCOC(=O)C1=C(C)Oc2nc(C)n(Cc3cn([C@@H]4O[C@H](COC(C)=O)[C@@H](OC(C)=O)[C@H](OC(C)=O)[C@H]4OC(C)=O)nn3)c(=O)c2C1c1ccc(Cl)cc1 (stereo partly specified) , target or system Phosphotyrosine protein phosphatase (Mycobacterium tuberculosis).
OUT: 1.55
